system: U937 cells; assay: Cellular assay in U937 cells on cell death (necroptosis), TNFα/zVAD.fmk; format: cell-based; conditions: Table 2; read-out: U937 IC50

| molecule | IC50 |
| --- | --- |
| N#Cc1cncc([C@@H]2CCON2C(=O)C2CCN(c3ncc(F)c(C(N)=O)n3)CC2F)c1 (stereo partly shown) [Ex. 155] | 4.06 nM |
| Cc1ccc(C2CCON2C(=O)C2CCN(c3ncc(C)c(C(N)=O)n3)CC2F)cn1 (single isomer, unassigned) [Ex. 185] | 1150 nM |
| Cc1ccc(C2CCON2C(=O)C2CCN(c3ncc(C)c(C(N)=O)n3)CC2F)cn1 (single isomer, unassigned) [compound 186] | 148 nM |
| N#Cc1cncc([C@@H]2CCON2C(=O)C2CCN(c3ncc(F)c(C(N)=O)n3)CC2F)c1 (stereo partly shown) [Ex. 154] | 38.8 nM |

* * *

biological target: hRIPK1 (aa 1-375) fusion protein (Homo sapiens); construct: hRIPK1 (aa 1-375) fusion protein; experiment: ADP-Glo kinase assay, RIPK1 autophosphorylation; format: biochemical; settings: Table 1
Structures can show the parent of a compound that is named as a salt.
Simple rule here: IC50 less than 40 nM is TRUE, otherwise FALSE.

| molecule | tested on | cat |
| --- | --- | --- |
| O=C(O)c1ccnc(N2CCC(C(=O)N3OCCC3c3cncc(F)c3)CC2)n1 (racemic) | hRIPK1 (aa 1-375) fusion protein (Homo sapiens) | FALSE |
| Cc1cncc([C@@H]2CCON2C(=O)C2CCN(c3cc(C#N)ncn3)CC2)c1 | hRIPK1 (aa 1-375) fusion protein (Homo sapiens) | TRUE |
| Cc1cnc(N2CCC(C(=O)N3OCC[C@H]3c3cncc(C#N)c3)CC2)nc1C(N)=O | hRIPK1 (aa 1-375) fusion protein (Homo sapiens) | TRUE |
| N#CCOc1nc(N2CCC(C(=O)N3OCC[C@H]3c3cncc(C#N)c3)CC2)ncc1F | hRIPK1 (aa 1-375) fusion protein (Homo sapiens) | TRUE |
| NC(=O)c1nc(N2CCC(C(=O)N3OCC[C@H]3c3cncc(F)c3)CC2)ncc1F | hRIPK1 (aa 1-375) fusion protein (Homo sapiens) | TRUE |
| N#Cc1cncc([C@@H]2CCON2C(=O)C2CCN(c3ncc(F)c(OCC(=O)O)n3)CC2)c1 [Ex. 033, TFA salt] | hRIPK1 (aa 1-375) fusion protein (Homo sapiens) | FALSE |
| Cc1cncc([C@@H]2CCON2C(=O)C2CCN(c3nccc(C#N)n3)CC2)c1 | hRIPK1 (aa 1-375) fusion protein (Homo sapiens) | TRUE |
| N#Cc1cncc([C@@H]2CCON2C(=O)C2CCN(c3ccnc(Br)n3)CC2)c1 | hRIPK1 (aa 1-375) fusion protein (Homo sapiens) | FALSE |
| N#Cc1cncc([C@@H]2CCON2C(=O)C2CCN(c3ncc(F)c(C(N)=O)n3)CC2F)c1 (stereo partly shown) [Ex. 155] | hRIPK1 (aa 1-375) fusion protein (Homo sapiens) | TRUE |
| Cc1ccc(C2CCON2C(=O)C2CCN(c3ncc(C)c(C(N)=O)n3)CC2F)cn1 (single isomer, unassigned) [compound 186] | hRIPK1 (aa 1-375) fusion protein (Homo sapiens) | TRUE |
| N#Cc1cncc([C@@H]2CCON2C(=O)[C@@H]2CCN(c3nccc(C(N)=O)n3)C[C@@H]2F)c1 (single isomer, unassigned) | hRIPK1 (aa 1-375) fusion protein (Homo sapiens) | TRUE |
| NC(=O)c1ccnc(N2CCC(F)(C(=O)N3OCC[C@H]3c3cnccn3)C(F)(F)C2)n1 (stereo partly shown) | hRIPK1 (aa 1-375) fusion protein (Homo sapiens) | TRUE |
| N#Cc1ccnc(N2CCC(C(=O)N3OCCC3c3cncc(CO)c3)CC2)n1 (racemic) | hRIPK1 (aa 1-375) fusion protein (Homo sapiens) | FALSE |
| CNC(=O)c1cncc(C2CCON2C(=O)C2CCN(c3nccc(C#N)n3)CC2)c1 (racemic) | hRIPK1 (aa 1-375) fusion protein (Homo sapiens) | FALSE |
| Cc1nsc(N2CCC(C(=O)N3OCC[C@H]3c3cncc(C#N)c3)CC2)n1 | hRIPK1 (aa 1-375) fusion protein (Homo sapiens) | FALSE |
| N#Cc1cncc([C@@H]2CCON2C(=O)C2CCN(c3ccnc(Cl)n3)CC2)c1 | hRIPK1 (aa 1-375) fusion protein (Homo sapiens) | TRUE |

* * *

Biological target: hRIPK1 (aa 1-375) fusion protein (Homo sapiens, UniProt Q13546)
Construct: hRIPK1 (aa 1-375) fusion protein
Sequence (Q13546 1-375): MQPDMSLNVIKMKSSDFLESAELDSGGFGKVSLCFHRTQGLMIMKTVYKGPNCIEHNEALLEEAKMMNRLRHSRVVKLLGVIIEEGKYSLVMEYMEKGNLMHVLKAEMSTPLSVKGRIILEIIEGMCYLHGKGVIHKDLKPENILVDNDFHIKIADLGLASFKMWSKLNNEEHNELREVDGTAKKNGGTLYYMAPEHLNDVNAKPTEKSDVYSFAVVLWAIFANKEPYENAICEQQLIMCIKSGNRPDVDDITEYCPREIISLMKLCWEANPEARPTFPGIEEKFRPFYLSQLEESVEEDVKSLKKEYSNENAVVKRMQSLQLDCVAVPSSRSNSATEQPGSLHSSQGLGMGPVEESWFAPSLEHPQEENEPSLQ
Assay: ADP-Glo kinase assay, RIPK1 autophosphorylation
Type: biochemical
Conditions: Table 1
Where a name gives a salt, the structure may show the parent alone.

| molecule | tested on | measurement unit | IC50 |
| --- | --- | --- | --- |
| Cc1c(F)cncc1[C@@H]1CCON1C(=O)C1CCN(c2nccc(C#N)n2)CC1 | hRIPK1 (aa 1-375) fusion protein (Homo sapiens, UniProt Q13546) | µM | 0.0713 |
| N#Cc1cncc([C@@H]2CCON2C(=O)C2CCN(c3nccc(C(=O)O)n3)CC2)c1 [Ex. 009] | hRIPK1 (aa 1-375) fusion protein (Homo sapiens, UniProt Q13546) | µM | 4.69 |
| Cc1cnc([C@@H]2CCON2C(=O)C2CCN(c3nccc(C(N)=O)n3)CC2)cn1 | hRIPK1 (aa 1-375) fusion protein (Homo sapiens, UniProt Q13546) | µM | 0.00955 |
| Cc1cnc([C@@H]2CCON2C(=O)C2CCN(c3ncc(F)c(C(N)=O)n3)CC2)cn1 | hRIPK1 (aa 1-375) fusion protein (Homo sapiens, UniProt Q13546) | µM | 0.0126 |
| NC(=O)c1ccnc(N2CCC(C(=O)N3OCCC3c3cncc(CO)c3)CC2)n1 (racemic) | hRIPK1 (aa 1-375) fusion protein (Homo sapiens, UniProt Q13546) | µM | 0.0516 |
| N#Cc1cc([C@@H]2CCON2C(=O)C2CCN(c3nccc(C(N)=O)n3)CC2)co1 | hRIPK1 (aa 1-375) fusion protein (Homo sapiens, UniProt Q13546) | µM | 0.0519 |
| N#Cc1nc([C@@H]2CCON2C(=O)C2CCN(c3ncc(F)c(C(N)=O)n3)CC2)cs1 | hRIPK1 (aa 1-375) fusion protein (Homo sapiens, UniProt Q13546) | µM | 0.0303 |
| N#Cc1cncc([C@@H]2CCON2C(=O)C2(F)CCN(c3nccc(C#N)n3)CC2(F)F)c1 (mixture of isomers) | hRIPK1 (aa 1-375) fusion protein (Homo sapiens, UniProt Q13546) | µM | 0.0263 |
| Cc1ncc([C@@H]2CCON2C(=O)C2CCN(c3cc(C(N)=O)ncn3)CC2)cc1F | hRIPK1 (aa 1-375) fusion protein (Homo sapiens, UniProt Q13546) | µM | 0.0336 |
| NC(=O)c1ccnc(N2CCC(C(=O)N3OCCC3C3CCCOC3)CC2)n1 (racemic) | hRIPK1 (aa 1-375) fusion protein (Homo sapiens, UniProt Q13546) | µM | 0.156 |
| CS(=O)(=O)c1nc(N2CCC(C(=O)N3OCC[C@H]3c3cncc(C#N)c3)CC2)ncc1F | hRIPK1 (aa 1-375) fusion protein (Homo sapiens, UniProt Q13546) | µM | 0.0112 |
| COC(=O)c1ccnc(N2CCC(C(=O)N3OCC[C@H]3c3cncc(C#N)c3)CC2)n1 [compound 100] | hRIPK1 (aa 1-375) fusion protein (Homo sapiens, UniProt Q13546) | µM | 0.0245 |
| CSc1nc(N2CCC(C(=O)N3OCC[C@H]3c3cncc(C#N)c3)CC2)ncc1F | hRIPK1 (aa 1-375) fusion protein (Homo sapiens, UniProt Q13546) | µM | 0.0175 |
| N#Cc1cncc([C@@H]2CCON2C(=O)C2CCN(c3cc(C(N)=O)ncn3)CC2)c1 | hRIPK1 (aa 1-375) fusion protein (Homo sapiens, UniProt Q13546) | µM | 0.0326 |
| Cc1coc([C@@H]2CCON2C(=O)C2CCN(c3nccc(C(N)=O)n3)CC2)c1 [compound 151, 2,2,2-trifluoroacetate salt] | hRIPK1 (aa 1-375) fusion protein (Homo sapiens, UniProt Q13546) | µM | 0.1 |
| N#Cc1cncc([C@@H]2CCON2C(=O)C2CCN(c3ccnc(C#N)n3)CC2)c1 | hRIPK1 (aa 1-375) fusion protein (Homo sapiens, UniProt Q13546) | µM | 0.0466 |
